The following compounds are listed with their measured TGI PANC-1 values.
Tested on: PANC-1
ASSAY INFO: SRB colorimetric assay of cell growth and viability, PANC-1
Format: cell-based, human
RECORDED CONDITIONS: 48 hours exposure
Where a SMILES comes first, the peptide text is derived from it. Bridges are numbered along the chain shown (N, C = ends). [ ]: non-standard residue; d: D form. The star is where a group is joined. d(aIle) = CC[C@H](C)[C@@H](N)C(=O)O; d(aThr) = C[C@@H](O)[C@@H](N)C(=O)O; Hexanoyl(5-Me) = CC(C)CCCC(=O)*; Orn = NCCC[C@H](N)C(=O)O; Dhb = C/C=C(\N)C(=O)O
Dear colleague, please return just the value in Molar, with no unit written.

// known answers, use as guide
For C/C=C1\NC(=O)[C@H](Cc2ccccc2)NC(=O)[C@@H](C(C)C)NC(=O)[C@@H]([C@@H](C)CC)NC(=O)[C@H](NC(=O)[C@H](NC(=O)[C@H](CCCN)NC(=O)[C@H]2CCCN2C(=O)[C@H](NC(=O)[C@@H](NC(=O)[C@H](NC(=O)[C@H](NC(=O)CCCC(C)C)C(C)C)[C@H](C)O)C(C)C)C(C)C)[C@@H](C)CC)[C@@H](C)OC(=O)[C@H](C(C)C)NC1=O [Compound 7, [D-Thr^12]-KF] , what is its reported TGI PANC-1?
6.77E−06

Next record, please: C/C=C1\NC(=O)[C@H](Cc2ccccc2)NC(=O)[C@@H](C(C)C)NC(=O)[C@@H]([C@@H](C)CC)NC(=O)[C@H](NC(=O)[C@H](NC(=O)[C@H](CCCN)NC(=O)[C@H]2CCCN2C(=O)[C@H](NC(=O)[C@H](Cc2ccccc2)NC(=O)[C@@H](NC(=O)[C@H](NC(=O)CCCC(C)C)C(C)C)[C@@H](C)O)C(C)C)[C@@H](C)CC)[C@@H](C)OC(=O)[C@H](C(C)C)NC1=O [Compound 43, [Phe^11]-KF] ({Hexanoyl(5-Me)}-[dV]TF[dV][dP][Orn][d(aIle)][d(aThr)][d(aIle)][dV]F[Dhb]V; ester 8-C)
4.86E−06

Ok, now C/C=C1\NC(=O)[C@H](Cc2ccccc2)NC(=O)[C@@H](C(C)C)NC(=O)[C@@H]([C@@H](C)CC)NC(=O)[C@H](NC(=O)[C@H](NC(=O)[C@H](CCCN)NC(=O)[C@H]2CCCN2C(=O)[C@H](NC(=O)[C@@H](NC(=O)[C@@H](NC(=O)CNC(=O)CCCC(C)C)[C@@H](C)O)C(C)C)C(C)C)[C@@H](C)CC)[C@@H](C)OC(=O)[C@H](C(C)C)NC1=O [Compound 33, [Gly^13]-KF]
1.70E−06

***
Entry C/C=C1\NC(=O)[C@H](Cc2ccccc2)NC(=O)[C@@H](C(C)C)NC(=O)[C@@H]([C@@H](C)CC)NC(=O)[C@H](NC(=O)[C@H](NC(=O)[C@H](CCCN)NC(=O)[C@H]2CCCN2C(=O)[C@H](NC(=O)[C@@H](NC(=O)CNC(=O)CCCC(C)C)C(C)C)C(C)C)[C@@H](C)CC)[C@@H](C)OC(=O)[C@H](C(C)C)NC1=O [Compound 53, [Gly^12, noD-Val^13]-KF] ({Hexanoyl(5-Me)}-GV[dV][dP][Orn][d(aIle)][d(aThr)][d(aIle)][dV]F[Dhb]V; ester 7-C) has what TGI PANC-1?
7.49E−06

Also check C/C=C1\NC(=O)[C@H](Cc2ccccc2)NC(=O)[C@@H](C(C)C)NC(=O)[C@@H]([C@@H](C)CC)NC(=O)[C@H](NC(=O)[C@H](NC(=O)[C@H](CCCN)NC(=O)[C@H]2CCCN2C(=O)[C@H](NC(=O)[C@@H](NC(=O)[C@H](CC(C)C)NC(=O)CCCC(C)C)C(C)C)C(C)C)[C@@H](C)CC)[C@@H](C)OC(=O)[C@H](C(C)C)NC1=O [Compound 54, [Leu^12, noD-Val^13]-KF] ({Hexanoyl(5-Me)}-LV[dV][dP][Orn][d(aIle)][d(aThr)][d(aIle)][dV]F[Dhb]V; ester 7-C)
2.01E−06

Note, next up: C/C=C1\NC(=O)[C@H](Cc2ccccc2)NC(=O)[C@@H](C(C)C)NC(=O)[C@@H]([C@@H](C)CC)NC(=O)[C@H](NC(=O)[C@H](NC(=O)[C@H](CCCN)NC(=O)[C@H]2CCCN2C(=O)[C@H](NC(=O)[C@@H](NC(=O)[C@@H](NC(=O)[C@H](NC(=O)CC[C@H](C)CC)C(C)C)[C@@H](C)O)C(C)C)C(C)C)[C@@H](C)CC)[C@@H](C)OC(=O)[C@H](C(C)C)NC1=O [Compound 16, [(4R)-MeHex^14]-KF]
4.24E−06

---

Tested on: PANC-1
ASSAY INFO: SRB colorimetric assay of cell growth and viability, PANC-1
Type: cell-based, human
RECORDED CONDITIONS: 48 hours exposure; read-out: LC50 PANC-1
Where a SMILES comes first, the peptide text is derived from it. Bridges are numbered along the chain shown (N, C = ends). [ ]: non-standard residue; d: D form. The star is where a group is joined. d(aIle) = CC[C@H](C)[C@@H](N)C(=O)O; d(aThr) = C[C@@H](O)[C@@H](N)C(=O)O; Hexanoyl(5-Me) = CC(C)CCCC(=O)*; Orn = NCCC[C@H](N)C(=O)O; Dhb = C/C=C(\N)C(=O)O
VALUE KIND: CC50 (µM)
Quick note: give the figure in µM, leave out the unit.

Notebook entry, PANC-1 assay: CC50 of C/C=C1\NC(=O)[C@H](Cc2ccccc2)NC(=O)[C@@H](C(C)C)NC(=O)[C@@H]([C@@H](C)CC)NC(=O)[C@H](NC(=O)[C@H](NC(=O)[C@H](CCCN)NC(=O)[C@H]2CCCN2C(=O)[C@H](NC(=O)[C@@H](NC(=O)[C@@H](NC(=O)[C@H](NC(=O)CCCNC(=N)N)C(C)C)[C@@H](C)O)C(C)C)C(C)C)[C@@H](C)CC)[C@@H](C)OC(=O)[C@H](C(C)C)NC1=O [Compound 29, [4-GuBut^14]-KF] = ?
6.7

New cases:
Find the measured CC50: item C/C=C1\NC(=O)[C@H](Cc2ccccc2)NC(=O)[C@@H](C(C)C)NC(=O)[C@@H]([C@@H](C)CC)NC(=O)[C@H](NC(=O)[C@H](NC(=O)[C@H](CCCN)NC(=O)[C@H]2CCCN2C(=O)[C@H](NC(=O)[C@H](CCCN)NC(=O)[C@@H](NC(=O)[C@H](NC(=O)CCCC(C)C)C(C)C)[C@@H](C)O)C(C)C)[C@@H](C)CC)[C@@H](C)OC(=O)[C@H](C(C)C)NC1=O [Compound 49, [Orn^11]-KF] ({Hexanoyl(5-Me)}-[dV]T[Orn][dV][dP][Orn][d(aIle)][d(aThr)][d(aIle)][dV]F[Dhb]V; ester 8-C) , target or system PANC-1.
6.7

---

Tested on: DU-145
ASSAY INFO: SRB colorimetric assay of cell growth and viability, DU-145
Type: cell-based, human
RECORDED CONDITIONS: DU-145; 48 hours exposure
Where a SMILES comes first, the peptide text is derived from it. Bridges are numbered along the chain shown (N, C = ends). [ ]: non-standard residue; d: D form. The star is where a group is joined. d(aIle) = CC[C@H](C)[C@@H](N)C(=O)O; d(aThr) = C[C@@H](O)[C@@H](N)C(=O)O; Hexanoyl(5-Me) = CC(C)CCCC(=O)*; Orn = NCCC[C@H](N)C(=O)O; Dhb = C/C=C(\N)C(=O)O
VALUE KIND: LC50 (concentration causing 50% net cell kill) (µM)
Only the number, expressed in µM, is required.

Field: LC50 (concentration causing 50% net cell kill) (DU-145). Entry: C/C=C1\NC(=O)[C@H](Cc2ccccc2)NC(=O)[C@@H](C(C)C)NC(=O)[C@@H]([C@@H](C)CC)NC(=O)[C@H](NC(=O)[C@H](NC(=O)[C@H](CCCN)NC(=O)[C@H]2CCCN2C(=O)[C@H](NC(=O)[C@@H](NC(=O)[C@H](CC(C)C)NC(=O)[C@H](NC(=O)CCCC(C)C)C(C)C)C(C)C)C(C)C)[C@@H](C)CC)[C@@H](C)OC(=O)[C@H](C(C)C)NC1=O [Compound 113, [Leu^12]-KF] ({Hexanoyl(5-Me)}-[dV]LV[dV][dP][Orn][d(aIle)][d(aThr)][d(aIle)][dV]F[Dhb]V; ester 8-C)
5.09

Do the same for C/C=C1\NC(=O)[C@H](Cc2ccc(F)c(F)c2)NC(=O)[C@@H](C(C)C)NC(=O)[C@@H]([C@@H](C)CC)NC(=O)[C@H](NC(=O)[C@H](NC(=O)[C@H](CCCN)NC(=O)[C@H]2CCCN2C(=O)[C@H](NC(=O)[C@@H](NC(=O)[C@@H](NC(=O)[C@H](NC(=O)CCCC(C)C)C(C)C)[C@@H](C)O)C(C)C)C(C)C)[C@@H](C)CC)[C@@H](C)OC(=O)[C@H](C(C)C)NC1=O [Compound 84, [Phe(3,4-F2)^3]-KF] please
0.463

Another: C/C=C1\NC(=O)[C@H](Cc2ccccc2)NC(=O)[C@@H](C(C)C)NC(=O)[C@@H]([C@@H](C)CC)NC(=O)[C@H](NC(=O)[C@H](NC(=O)[C@H](CCCN)NC(=O)[C@H]2CCCN2C(=O)[C@H](NC(=O)[C@@H](NC(=O)CNC(=O)[C@H](NC(=O)CCCC(C)C)C(C)C)C(C)C)C(C)C)[C@@H](C)CC)[C@@H](C)OC(=O)[C@H](C(C)C)NC1=O [Compound 111, [Gly^12]-KF] ({Hexanoyl(5-Me)}-[dV]GV[dV][dP][Orn][d(aIle)][d(aThr)][d(aIle)][dV]F[Dhb]V; ester 8-C)
6.97

Consider next the compound [2H]C([2H])([2H])C([2H])(C([2H])([2H])[2H])[C@]([2H])(NC(=O)[C@@H](NC(=O)[C@H](NC(=O)CCCC(C)C)C(C)C)[C@@H](C)O)C(=O)N[C@@H](C(=O)N1CCC[C@@H]1C(=O)N[C@@H](CCCN)C(=O)N[C@@H](C(=O)N[C@H]1C(=O)N[C@H]([C@@H](C)CC)C(=O)N[C@H](C(C)C)C(=O)N[C@@H](Cc2ccccc2)C(=O)N/C(=C\C)C(=O)N[C@@H](C(C)C)C(=O)O[C@@H]1C)[C@@H](C)CC)C(C)C [Compound 100, [L-Val-d8^11]-KF] in the same way.
1.59

More entries:
Record lookup: for DU-145, what LC50 (concentration causing 50% net cell kill) belongs to C/C=C1\NC(=O)[C@H](Cc2cccc(Cl)c2)NC(=O)[C@@H](C(C)C)NC(=O)[C@@H]([C@@H](C)CC)NC(=O)[C@H](NC(=O)[C@H](NC(=O)[C@H](CCCN)NC(=O)[C@H]2CCCN2C(=O)[C@H](NC(=O)[C@@H](NC(=O)[C@@H](NC(=O)[C@H](NC(=O)CCCC(C)C)C(C)C)[C@@H](C)O)C(C)C)C(C)C)[C@@H](C)CC)[C@@H](C)OC(=O)[C@H](C(C)C)NC1=O [Compound 82, [Phe(3-Cl)^3]-KF] ?
0.553

C/C=C1\NC(=O)[C@H](Cc2ccccc2)NC(=O)[C@@H](C(C)C)NC(=O)[C@@H]([C@@H](C)CC)NC(=O)[C@H](NC(=O)[C@H](NC(=O)[C@H](CCCN)NC(=O)[C@H]2CCCN2C(=O)[C@H](NC(=O)[C@@H](NC(=O)[C@H](CCC(=O)O)NC(=O)[C@H](NC(=O)CCCC(C)C)C(C)C)C(C)C)C(C)C)[C@@H](C)CC)[C@@H](C)OC(=O)[C@H](C(C)C)NC1=O [Compound 115, [Glu^12]-KF] ({Hexanoyl(5-Me)}-[dV]EV[dV][dP][Orn][d(aIle)][d(aThr)][d(aIle)][dV]F[Dhb]V; ester 8-C) , same question.
6.64
